system: SW-620 colon; experiment: NCI tumour cell line growth inhibition, 48 h
In this section, each of the molecules is paired with its reported TGI.

1) Cc1cc(OCc2n[nH]c(=S)n2/N=C/c2ccc(F)cc2)ccc1Cl = > 100 µM
2) Cn1c(=O)c2ccccc2c2nc3ccccc3nc21 = > 100 µM
3) CC(=O)Oc1ccc2c(c1OC(C)=O)CCC1C2=CC[C@]2(C)C(=O)CCC12 (stereo partly specified) = 14.5 µM
4) O=C(O)c1ccccc1C1CCCc2c1[nH]c1ccccc21 (stereo unspecified) = > 100 µM
5) C=CCNC(=O)/C=C\C(=O)O = > 100 µM

TGI for Cn1c(-c2ccc(/C=N/N=C/c3ccc(-c4c[n+]5ccccc5n4C)cc3)cc2)c[n+]2ccccc12 is > 100 µM

All values here come from PubChem BioAssay (NCI).
